# tested target: T1, human MSR1 extracellular domain expressed with a N-terminal nonahistidine tag (human, UniProt P21757 77-451)
# T1 construct: extracellular domain; also called His9-hMSR1; His-hMSR1
# T1 sequence: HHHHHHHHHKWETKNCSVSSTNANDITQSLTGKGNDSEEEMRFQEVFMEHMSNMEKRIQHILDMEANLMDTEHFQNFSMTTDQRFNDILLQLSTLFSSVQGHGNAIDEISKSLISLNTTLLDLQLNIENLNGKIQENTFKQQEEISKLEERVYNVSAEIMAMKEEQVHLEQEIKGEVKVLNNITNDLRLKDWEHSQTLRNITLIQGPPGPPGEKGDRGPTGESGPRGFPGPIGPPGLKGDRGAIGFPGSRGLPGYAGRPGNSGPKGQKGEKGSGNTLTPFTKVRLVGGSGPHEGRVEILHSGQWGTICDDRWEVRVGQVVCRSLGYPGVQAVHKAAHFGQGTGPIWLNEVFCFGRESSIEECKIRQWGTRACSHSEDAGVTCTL
# test protocol: competition ELISA, plate-coated His9-hMSR1; 1 µM antibody, competitor ligand 10 nM Ox-LDL
Returns one of Condition met or Condition not met; Condition met when % Blocking is >= -30%.

Record excerpt, results attached:
Request: For this binder, is measured % Blocking -30% or higher? H1H27747P-N297Q (antibody, V domains shown, Human IgG1 Fc with N297Q) VH: QVQLVESGGAVVQPGRSLRLSCAASGFTFSYYGMHWVRQAPGKGLEWVAVISYDGSKKYYADSVKGRFTISRDNSKNTLYLQMNSLRAEDTAVYYCAKDLTVDFYYGMDVWGQGTTVTVSS VL: DIQMTQSPSSVSASVGDRVTITCRASQGISSWLAWYQQKPGKAPKLLIYATSSLQSGAPSRFSGSGSGTDFTLTISSLQPEDFATYFCQQANSFPYTFGQGTKLEIKR
Result: Condition not met

Request: Hello, I need to know if H1H27739P-N297Q (antibody, V domains shown, Human IgG1 Fc with N297Q) VH: EVQLVESGGGLVQPGGSLRLSCTASGFTFSSYAMSWVRQAPGKGLEWVSAISGTGSSTYFTDSVKGRFAISRDNSKNTLYLQMNSLRAEDTAVYYCAKDGEWLSTVTLFDYWGQGTLVTVSS VL: EIVMTQSPATLSVSPGERATLSCRASQSVSSNLAWYQQKPGQAPRLLIYGASTRATGIPARFSGSGSGTDFTLTISSLQSEDFALYYCQQYFIWPPHPTFGPGTKVDIKR has measured % Blocking not below -30%. Thanks!
Result: Condition not met

Request: For this binder, is measured % Blocking -30% or higher? H1H27749P-N297Q (antibody, V domains shown, Human IgG1 Fc with N297Q) VH: QVQLQESGPGLVKPSETLSLTCTVSDGSISSYYWSWIRQPPGRGLEWIGFIYYSGSTSYNPSLKSRVTISVDTSMSQFSLKLRSVTAADTAVYYCARGSPFDYWGPGTLVTVSS VL: EIVLTQSPGTLSLSPGERATLSCRASQSVSSSYLAWYQQRPGQAPSLLISGASRRATGIPDRFSGSGSGTDFTLTIRRLEPEDFAMYYCQQYGSSPPTFGGGTKVEIKR
Result: Condition met

Request: Does the reported % Blocking for H1H27734P-N297Q (antibody, V domains shown, Human IgG1 Fc with N297Q) VH: EVQLVESRGGLVQPGGSLRLSCAASGFTFSSYAMSWVRQAPGKGLEWVSAISGSGGSTFYADSVKGRFTISRDNSKNTVYLQMNSLRAEDTAVYYCAKALVLRFLEWLGDYWGQGTLVTVSS VL: DIQMTQSPSTLSASVGDRVTITCRASQSISSWLAWFQQKPGKAPKLLIYKASSLESGVPSRFSGSGSGTEFTLTISSLQPDDFATYYCQQYKSYWTFGQGTKVEIKR fall at or above the -30% mark?
Result: Condition met

Request: Is reported % Blocking greater than or equal to -30% here: H1H27731P-N297Q (antibody, V domains shown, Human IgG1 Fc with N297Q) VH: QLQLQESGPGLVKPSETLSLTCTVSGGSISRISYYWGWIRQPPGKGLEWIGSIYDSGSTYYNPSLKSRVTISIDTSKNQFSLKLSSVTAADTAVYYCVRYSSSSAFAFDYWGQGTLVTVSS VL: DIQMTQSPSSVSASVGDRVTITCRASQGISSWLAWYQQKPGKAPKLLIYAASSLQSGVPSRFSGSGSGTDFTLTISSLQPEDFATYYCQQANSFPFTFGPGTKVDIKR
Result: Condition met

Further cases:
Request: Please tell me: is the binder H1H27736P-N297Q (antibody, V domains shown, Human IgG1 Fc with N297Q) VH: EVQLVESGGGLVQPGGSLRLSCAASGFTFSSYAMSWVRQAPGKGLEWVSSISGSGDSTFYTDSVKGRFTISRDISKNTLYLQMNSLRAEDTAVYYCAKDRLLWFGDLISPFHYWGQGTLVTVSS VL: EIVLTQSPGTLSLSPGERATLSCRASQSVSNIYLAWYQQKPAQAPRLLIYGASSRATGIPDRFSVSGSGTDFTLTISRLEPEDFAVYYCQQYGSSPRTFGQGTKVEIKR at or over -30% in terms of % Blocking?
Result: Condition met

Request: Decide: % Blocking of H1H27729P-N297Q (antibody, V domains shown, Human IgG1 Fc with N297Q) VH: QVQLVESGGGLVKPGGSLRLSCAASGFIFSDYYMSWIRQAPGKGLEWVSYISSSGTTIYGDSVKGRFTMSRDNAKNSLYLQMNSLRAEDTAVYYCARNYALFDYWGQGTLVTVSS VL: DIQMTQSPSSLSASVGDRVTITCQASQDISKYLNWYQQKPGKAPKLLIYYTSNLETGVPSRFSGSGSGTDFTFTISSLQPEDIATYYCHQSDYLPFTFGPGTKVDIKR >= -30%?
Result: Condition met

Request: Record H1H27732P-N297Q (antibody, V domains shown, Human IgG1 Fc with N297Q) VH: QLQLQESGPGLVKPSETLSLTCTVSGGSISSSTYYWGWIRQPPGKGLEWIGSFYYSGSTYYNPSLKSRVTISVGTSKNQFSLKLSSVTAADTAVYFCARGGLLGRPFVIWGQGTMVTVSS VL: DIQMTQSPSSLSASVGDRVTITCRASQGIRNDLGWYQQKPGKAPKRLIYAASSLQSGVPSRFSGSGSGTEFTLTISSLQPEDFATYYCLQHNSYPLTFGGGTKVEIKR ; criterion: % Blocking no lower than -30%. Met?
Result: Condition not met

Request: Check if % Blocking >= -30% (inclusive). Item: H1H27754P-N297Q (antibody, V domains shown, Human IgG1 Fc with N297Q) VH: EVQLVESGGGLVQPGGSLRLSCAASGFTFRTYAMTWVRQAPGKGLDWVSAITGDGGNTYYADSVKGRFTISRDNSKNTLYLQMNSLRAEDTAIYYCAKDQRFSFALYYFDYWGQGTLVTVSS VL: DIQMTQSPSSVSASVGDRVTITCRASQGISSWLAWYQQKPGNAPKLLIYAAFSLQSGVPSRFSGSGSGTDFTLTISSLQPEDFATYYCQQANNFPWTFGQGTKVEIKR
Result: Condition not met

Data origin: patent US20190367631A1
